Assay: WST-1 proliferation assay, SAOS-2
Assay type: cell-based
Details: human, SAOS-2 cells (osteosarcoma), vs 0.1% DMSO control = 100%, mean ± standard deviation
Procedure: A thorough analysis of antiproliferative activity was performed across various cell culture types representing different histotypes: leukemia (Jurkat, MOLT-4), lung adenocarcinoma (A549), colorectal adenocarcinoma (HT-29), pancreatic carcinoma (PANC-1), breast adenocarcinoma (MCF-7), osteosarcoma (SAOS-2), and one non-cancerous cell line (fetal lung fibroblasts MRC-5). The cell lines were exposed to the newly synthesized compounds at a concentration of 100 μM for 48 h in a single-dose treatment. […]
property.label: viability at 48 h, 100 µM (%)

{"columns": ["compound", "quantitative.result"],
 "data": [
  ["OCCN1CCN(CC(O)COc2cccc(Cl)c2)CC1 (centres unmarked)", 120],
  ["O=[N+]([O-])c1cc(OCC(O)CN2CCN(CCO)CC2)ccc1Cl (centres unmarked)", 89],
  ["COc1ccc(OCC(O)CN2CCN(CCO)CC2)c([N+](=O)[O-])c1 (centres unmarked)", 103],
  ["NCCCNCCSP(=O)(O)O [WR2721, amifostine, reference compound]", 9],
  ["COc1cc([N+](=O)[O-])ccc1OCC(O)CN1CCN(CCO)CC1 (centres unmarked)", 101]
]}
